Entry source: patent US20250277059A1

Target: T1, Human TMPRSS2 expressed on cells (human, UniProt O15393 1-492)
T1 construct: also called TMPRSS2 expressing cells; Daudi-TMPRSS2 transfectant
T1 sequence (O15393 whole entry): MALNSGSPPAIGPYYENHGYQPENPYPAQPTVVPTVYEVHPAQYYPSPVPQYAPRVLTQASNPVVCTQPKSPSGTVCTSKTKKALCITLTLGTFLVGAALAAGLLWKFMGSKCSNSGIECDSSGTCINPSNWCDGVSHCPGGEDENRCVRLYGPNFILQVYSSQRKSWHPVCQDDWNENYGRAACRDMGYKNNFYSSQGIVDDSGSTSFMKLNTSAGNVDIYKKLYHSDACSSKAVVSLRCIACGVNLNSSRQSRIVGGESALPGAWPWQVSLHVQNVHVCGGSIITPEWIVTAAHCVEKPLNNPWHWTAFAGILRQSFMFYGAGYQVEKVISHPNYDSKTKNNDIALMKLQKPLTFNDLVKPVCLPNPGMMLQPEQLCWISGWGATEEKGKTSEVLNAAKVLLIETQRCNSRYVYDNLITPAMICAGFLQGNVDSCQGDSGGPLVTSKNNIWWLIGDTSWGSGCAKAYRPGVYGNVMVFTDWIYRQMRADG
EXPERIMENTAL_ENDPOINT: APC median at 3 µg/ml
Respond with the number and no other words.

- BINDER: "humanized 2228-15 IgG4 (S108P) prototype #1 (antibody, V domains shown, also called humanized #1; hu #1) VH: QVQLVQSGAEVKKPGASVKVSCKASGYTFTDYYINWVRQAPGQGLEWMGWIFPGSGSSYYNAIFKGRVTMTRDTSISTAYMELSRLRSDDTAVYYCARGDFGNFGGFFTYWGQGTLVTVSS VL: DVVMTQSPLSLPVTLGQPASISCRASKSVSTSGYSFMHWFQQRPGQSPRRLIYLASNLESGVPDRFSGSGSGTDFTLKISRVEAEDVGVYYCQHSRELPLTFGGGTKVEIK"
  APC median at 3 µg/ml: 579
- BINDER: "humanized 2228-15 IgG4 (S108P) prototype #3 (antibody, V domains shown, also called humanized #3; hu #3) VH: EIQLVQSGAEVKKPGSSVKVSCKASGYTFTDYYINWMRQAPGQGLEWIGWIFPGSGSSYYNAIFKGRATLTVDTSTNTAYMELSSLRSEDTAFYFCARGDFGNFGGFFTYWGQGTLVTVSS VL: DVVMTQSPLSLPVTLGQPASISCRASKSVSTSGYSFMHWFQQRPGQSPRRLIYLASNLESGVPDRFSGSGSGTDFTLKISRVEAEDVGVYYCQHSRELPLTFGGGTKVEIK"
  APC median at 3 µg/ml: 862

// next entry
Lookup: Please list APC median at 3 µg/ml recorded for the binder humanized 752-1 IgG4 (S108P) prototype #2 (antibody, V domains shown, also called humanized #2; hu #2) VH: QVQLVQSGAEVKKPGASVKVSCKASGYTFTSCGISWVRQAPGQGLEWMGEIYPRGGNTYYNEKFKGRVTMTTDTSTSTAYMELRSLRSDDTAVYYCARENGNYDPLFAYWGQGTLVTVSS VL: DIQMTQSPSSLSASVGDRVTITCKASQDINKYIAWYQQKPGKAPKLLIHYTSTLQPGVPSRFSGSGSGTDFTFTISSLQPEDIATYYCLQYYNLWTFGGGTKVEIK
Found: 1410
